System: Hepatotoxicity
Test: Human drug-induced liver injury (DILI) modelling dataset from Ekins et al

[
  {
    "compound": "CN1CCN(C(c2ccccc2)c2ccccc2)CC1",
    "Hepatotoxicity": "DILI positive (test set)"
  },
  {
    "compound": "CCCNC(=O)NS(=O)(=O)c1ccc(Cl)cc1 [CHLORPROPAMIDE]",
    "Hepatotoxicity": "DILI positive (test set)"
  }
]

---

Test system: Hepatotoxicity
Test: Human drug-induced liver injury (DILI) modelling dataset from Ekins et al
quantity-name: Hepatotoxicity

Use the examples below as a reference point.
[
  {
    "compound": "Oc1c(Cl)cc(Cl)cc1Sc1cc(Cl)cc(Cl)c1O",
    "test-target": "Hepatotoxicity",
    "quantity-name": "Hepatotoxicity",
    "value-measured": "DILI positive (test set)"
  },
  {
    "compound": "CC1=C(C(=O)O)N2C(=O)[C@@H](NC(=O)[C@H](N)C3=CCC=CC3)[C@H]2SC1",
    "test-target": "Hepatotoxicity",
    "quantity-name": "Hepatotoxicity",
    "value-measured": "DILI negative (test set)"
  },
  {
    "compound": "Cn1nnnc1SCC1=C(C(=O)[O-])N2C(=O)[C@@H](NC(=O)[C@H](O)c3ccccc3)[C@H]2SC1.[Na+] [CEFAMANDOLE SODIUM]",
    "test-target": "Hepatotoxicity",
    "quantity-name": "Hepatotoxicity",
    "value-measured": "DILI positive (test set)"
  },
  {
    "compound": "O=P1(NCCCl)OCCCN1CCCl (stereo not given) [IFOSFAMIDE]",
    "test-target": "Hepatotoxicity",
    "quantity-name": "Hepatotoxicity",
    "value-measured": "DILI positive (test set)"
  },
  {
    "compound": "Cc1cnc(NC(=O)C2=C(O)c3ccccc3S(=O)(=O)N2C)s1",
    "test-target": "Hepatotoxicity",
    "quantity-name": "Hepatotoxicity",
    "value-measured": "DILI negative (test set)"
  }
]

Please report Hepatotoxicity for every entry that follows.
1. COCc1c(C(C)C)nc(C(C)C)c(/C=C/[C@@H](O)C[C@@H](O)CC(=O)O)c1-c1ccc(F)cc1
2. COCC(=O)O[C@]1(CCN(C)CCCc2nc3ccccc3[nH]2)CCc2cc(F)ccc2[C@@H]1C(C)C

stdout:
1: DILI positive (test set); 2: DILI negative (test set)

---

Test system: Hepatotoxicity
Test: Human drug-induced liver injury (DILI) modelling dataset from Ekins et al
quantity-name: Hepatotoxicity

Use the examples below as a reference point.
[
  {
    "compound": "Clc1ccc(COC(Cn2ccnc2)c2ccc(Cl)cc2Cl)cc1.O=[N+]([O-])O (stereo not drawn) [ECONAZOLE NITRATE]",
    "value-measured": "DILI negative (test set)"
  },
  {
    "compound": "CCC1(c2ccccc2)C(=O)NC(=O)N(C)C1=O (stereo not drawn) [MEPHOBARBITAL]",
    "value-measured": "DILI positive (test set)"
  },
  {
    "compound": "CCc1ccc(CCOc2ccc(CC3SC(=O)NC3=O)cc2)nc1 (stereo not drawn) [PIOGLITAZONE]",
    "value-measured": "DILI negative (test set)"
  },
  {
    "compound": "ClC=C(Cl)Cl [TRICHLOROETHYLENE]",
    "value-measured": "DILI positive (test set)"
  },
  {
    "compound": "CC(=O)N[C@@H](CS)C(=O)O [ACETYLCYSTEINE]",
    "value-measured": "DILI negative (test set)"
  },
  {
    "compound": "CCC1(C)CC(=O)NC1=O (stereo not drawn) [ETHOSUXIMIDE]",
    "value-measured": "DILI positive (test set)"
  }
]

Please report Hepatotoxicity for every entry that follows.
1. CC(C)(C)NC(=O)[C@@H]1CN(Cc2cccnc2)CCN1C[C@@H](O)C[C@@H](Cc1ccccc1)C(=O)N[C@H]1c2ccccc2C[C@H]1O.O=S(=O)(O)O [INDINAVIR SULFATE]
2. CO[C@@]1(NC(=O)C2SC(=C(C(N)=O)C(=O)O)S2)C(=O)N2C(C(=O)O)=C(CSc3nnnn3C)CS[C@@H]21 (stereo partly drawn) [CEFOTETAN]
3. COc1cc(CNC(=O)CCCC/C=C/C(C)C)ccc1O [CAPSAICIN]
4. CCC[C@@H]1C[C@@H](C(=O)N[C@@H]([C@H]2O[C@H](SC)[C@H](O)[C@@H](O)[C@H]2O)[C@H](C)Cl)N(C)C1.Cl [CLINDAMYCIN HYDROCHLORIDE]
5. CC1(C)C(C=C(Cl)Cl)C1C(=O)OCc1cccc(Oc2ccccc2)c1 (stereo not drawn) [PERMETHRIN]

stdout:
1. DILI negative (test set)
2. DILI negative (test set)
3. DILI negative (test set)
4. DILI positive (test set)
5. DILI negative (test set)

stdin: Consider the compound CC1(c2ccccc2)Cc2cc(OCC(=O)O)c(Cl)c(Cl)c2C1=O (stereo not drawn) [INDACRINONE] and give its measured Hepatotoxicity.
stdout: DILI positive (test set)
